Tested on: EPHB6;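 further: KINOMEscan kinase panel screen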
run-parameters: concentration: 1 μM, replicates: in singlicate; n = 1
endpoint: %Inh (%)
Note: unit % is implicit; provide only the numeric part.

Consider the worked cases shown below.
compound=O=C(O)COc1ncnc2cc(-c3ccc4[nH]ncc4c3)sc12 recorded_number=47
compound=Cc1cccc(-c2nc(C)cc(Nc3ccncc3)n2)n1 recorded_number=0
compound=Cc1ccc(C(=O)Nc2ccc(Nc3ccnc4cc(-c5ccccn5)ccc34)cc2O)cc1.Cl recorded_number=48

# lookup: %Inh of Cn1ccc2ncnc(Oc3ccc(Nc4nc5ccccc5[nH]4)cc3)c21 0

Next compound: COc1cc2ncn(-c3cc(OCC4CCCO4)c(C(N)=O)s3)c2cc1OC (centres unmarked) 23
